test system: Salmonella typhimurium; assay: Antimicrobial activity against Salmonella Typhimurium ATCC 14028 assessed as inhibition of planktonic cell growth at 40 uM after 24 hrs by […]; assay type: functional, organism-based; settings: Salmonella enterica subsp. enterica serovar Typhimurium
The source made the active and inactive calls. The rule behind the calls is not given here.
Possible outcomes: active, inactive

entry_smiles=CC(C)CNc1ncc(-c2ccc([N+](=O)[O-])cc2)[nH]1 class_assignment=inactive
entry_smiles=Clc1ccc(-c2cnc(NCc3ccccc3)[nH]2)cc1 class_assignment=inactive
entry_smiles=CCCCCCCCCCCCN1c2nccc[n+]2C[C@@]1(O)c1ccccc1.[Br-] class_assignment=active
entry_smiles=Nc1ncc(-c2ccc(Cl)cc2)[nH]1 class_assignment=inactive
entry_smiles=CC(C)CN1c2nccc[n+]2C[C@@]1(O)c1ccc(Cl)cc1 class_assignment=inactive
entry_smiles=CC(C)CNc1ncc(-c2ccccc2)[nH]1 class_assignment=inactive
